These entries and their values trace back to ChEMBL document CHEMBL5385931.

Entries and their measured pIC50 follow.
- Tested on: NCI-H1975
- experimental protocol: Cytotoxicity against human NCI-H1975 cells assessed as cell growth inhibition by CCK8 assay
pIC50: −log10 of the molar value.
measure: pIC50

INSERT INTO measurements (smiles_text, numeric_readout) VALUES
  ('CC1=C[C@@]2(C)C(=C(C)[C@H]3[C@@H]4C[C@H](CO)C[C@H](C)[C@H]4[C@H]4Oc5ccc(cc5)C[C@@H]5C(=O)NC(=O)[C@H]5C(=O)[C@H]2[C@@H]43)[C@H]1C', 4.37),
  ('C=C/C(C)=C/[C@]1(C)C=C(C)[C@H]2[C@@H]3C[C@H](C)C[C@H](C)[C@H]3[C@H]3Oc4ccc(cc4)C[C@@H]4C(=O)NC(=O)[C@H]4C(=O)[C@@H]1[C@@H]32', 4.17),
  ('C=C/C(C)=C\[C@]1(C)C=C(C)[C@H]2[C@@H]3C[C@H](C)C[C@H](C)[C@H]3[C@H]3Oc4ccc(cc4)C[C@@H]4C(=O)NC(=O)[C@H]4C(=O)[C@@H]1[C@@H]32', 4.46),
  ('CC1=C[C@@]2(C)[C@@H]3C(=O)[C@@]45C(=O)N[C@@](O)(Cc6ccc(cc6)O[C@@H]6[C@H]7[C@@H](C[C@H](CO)C[C@@H]7C)[C@H]1[C@H]63)[C@H]4CC=C(C)[C@@H]25', 4.24),
  ('CC1=C2[C@@H](C)[C@@]3(C)O[C@H]3[C@]2(C)[C@H]2C(=O)[C@]34O[C@H]3[C@](O)(Cc3ccc(cc3)O[C@@H]3[C@H]5[C@@H](C[C@H](C)C[C@@H]5C)[C@H]1[C@H]32)NC4=O', 4.48);

====

- target under test: Tyrosine-protein phosphatase non-receptor type 1 (Homo sapiens)
- Sequence (P18031 whole entry): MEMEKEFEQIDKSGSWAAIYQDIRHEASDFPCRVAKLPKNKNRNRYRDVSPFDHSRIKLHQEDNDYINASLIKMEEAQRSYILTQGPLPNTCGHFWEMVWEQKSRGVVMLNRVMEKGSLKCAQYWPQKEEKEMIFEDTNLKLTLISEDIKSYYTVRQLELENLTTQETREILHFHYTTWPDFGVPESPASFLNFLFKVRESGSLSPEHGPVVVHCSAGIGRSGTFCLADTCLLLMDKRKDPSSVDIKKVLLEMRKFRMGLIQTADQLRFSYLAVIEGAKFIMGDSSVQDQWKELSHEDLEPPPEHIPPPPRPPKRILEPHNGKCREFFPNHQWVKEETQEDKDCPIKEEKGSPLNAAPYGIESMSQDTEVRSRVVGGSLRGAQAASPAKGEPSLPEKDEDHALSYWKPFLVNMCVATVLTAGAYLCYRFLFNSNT
Entries and their measured IC50 follow.
measure: IC50 (µM)

INSERT INTO results (smiles_text, measure, value_comparator, numeric_readout) VALUES
  ('CC1=C[C@@]2(C)C(=C(C)[C@H]3[C@@H]4C[C@H](C)C[C@H](C)[C@H]4[C@@H]4Oc5ccc(cc5)C[C@@]5(O)C=C(C(=O)N5)C(=O)[C@@H]2[C@@H]43)[C@H]1C', 'IC50', '=', 11),
  ('CC1=C[C@@]2(C)C(=C(C)[C@H]3[C@@H]4C[C@H](C)C[C@H](C)[C@H]4[C@H]4Oc5ccc(cc5)C[C@@H]5C(=O)NC(=O)[C@H]5C(=O)[C@@H]2[C@@H]43)[C@H]1C', 'IC50', '>', 200),
  ('CC1=C[C@@]2(C)C(=C(C)[C@H]3[C@@H]4C[C@H](CO)C[C@H](C)[C@H]4[C@H]4Oc5ccc(cc5)C[C@@H]5C(=O)NC(=O)[C@H]5C(=O)[C@H]2[C@@H]43)[C@H]1C', 'IC50', '>', 200),
  ('CC1=C[C@@]2(C)C(=C(C)[C@H]3[C@@H]4C[C@H](C)C[C@H](C)[C@H]4[C@H]4Oc5ccc(cc5)C[C@@H]5C(=O)NC(=O)[C@H]5C(=O)[C@H]2[C@@H]43)[C@H]1C', 'IC50', '=', 11),
  ('CC1=C2[C@@H](C)[C@@]3(C)O[C@H]3[C@]2(C)[C@H]2C(=O)[C@]34O[C@H]3[C@](O)(Cc3ccc(cc3)O[C@@H]3[C@H]5[C@@H](C[C@H](C)C[C@@H]5C)[C@H]1[C@H]32)NC4=O', 'IC50', '=', 42);

====

Entries below carry reported IC50 on Tyrosine-protein phosphatase non-receptor type 1 (Homo sapiens, UniProt P18031).
measure: IC50 (µM)

INSERT INTO measurements (smiles_text, target_under_test, measure, value_comparator, numeric_readout) VALUES
  ('CC1=C[C@@]2(C)C(=C(C)[C@H]3[C@@H]4C[C@H](C)C[C@H](C)[C@H]4[C@H]4Oc5ccc(cc5)C[C@]5(O)NC(=O)[C@]6(O[C@H]65)C(=O)[C@H]2[C@@H]43)[C@H]1C', 'Tyrosine-protein phosphatase non-receptor type 1 (Homo sapiens, UniProt P18031)', 'IC50', '=', 8.7),
  ('CC1=C[C@@]2(C)[C@@H]3C(=O)[C@@]45C(=O)N[C@@](O)(Cc6ccc(cc6)O[C@@H]6[C@H]7[C@@H](C[C@H](CO)C[C@@H]7C)[C@H]1[C@H]63)[C@H]4CC=C(C)[C@@H]25', 'Tyrosine-protein phosphatase non-receptor type 1 (Homo sapiens, UniProt P18031)', 'IC50', '>', 200);

====

- Tested on: Bacillus subtilis
- experimental protocol: Antibacterial activity against Bacillus subtilis BS01 assessed as bacterial growth inhibition by broth microdilution method
- Type: functional
Entries and their measured MIC follow.
measure: MIC (µg/mL)

INSERT INTO results (smiles_text, numeric_readout) VALUES
  ('CO[C@@H]1/C2=C(\O)[C@H]3[C@H]4[C@H](Oc5ccc(cc5)C[C@]1(O)NC2=O)[C@H]1[C@@H](C[C@H](C)C[C@@H]1C)[C@@H]4C(C)=C1[C@@H](C)C(C)=C[C@@]13C', 0.2),
  ('C=C/C(C)=C\[C@]1(C)C=C(C)[C@H]2[C@@H]3C[C@H](C)C[C@H](C)[C@H]3[C@H]3Oc4ccc(cc4)C[C@@H]4C(=O)NC(=O)[C@H]4C(=O)[C@@H]1[C@@H]32', 100),
  ('CC1=C[C@@]2(C)C(=C(C)[C@H]3[C@@H]4C[C@H](C)C[C@H](C)[C@H]4[C@H]4Oc5ccc(cc5)C[C@]5(O)NC(=O)[C@]6(O[C@H]65)C(=O)[C@H]2[C@@H]43)[C@H]1C', 50),
  ('CC1=C[C@@]2(C)[C@@H]3C(=O)[C@@]45C(=O)N[C@@](O)(Cc6ccc(cc6)O[C@@H]6[C@H]7[C@@H](C[C@H](CO)C[C@@H]7C)[C@H]1[C@H]63)[C@H]4CC=C(C)[C@@H]25', 100);

====

- Tested on: Streptococcus iniae
- experimental protocol: Antibacterial activity against Streptococcus iniae SC41992 assessed as bacterial growth inhibition by broth microdilution method
- Assay type: functional
Entries and their measured log10(MIC) follow.
measure: log10(MIC) (log10 of the value in µg/mL)

INSERT INTO assay_data (compound, target_under_test, numeric_readout) VALUES
  ('CC1=C[C@@]2(C)[C@@H]3C(=O)[C@@]45C(=O)N[C@@](O)(Cc6ccc(cc6)O[C@@H]6[C@H]7[C@@H](C[C@H](CO)C[C@@H]7C)[C@H]1[C@H]63)[C@H]4CC=C(C)[C@@H]25', 'Streptococcus iniae', 2.00),
  ('CC1=C[C@@]2(C)C(=C(C)[C@H]3[C@@H]4C[C@H](C)C[C@H](C)[C@H]4[C@H]4Oc5ccc(cc5)C[C@]5(O)NC(=O)[C@]6(O[C@H]65)C(=O)[C@H]2[C@@H]43)[C@H]1C', 'Streptococcus iniae', 1.40),
  ('CC1=C[C@@]2(C)C(=C(C)[C@H]3[C@@H]4C[C@H](C)C[C@H](C)[C@H]4[C@@H]4Oc5ccc(cc5)C[C@@]5(O)C=C(C(=O)N5)C(=O)[C@@H]2[C@@H]43)[C@H]1C', 'Streptococcus iniae', -0.40),
  ('CC1=C[C@@]2(C)C(=C(C)[C@H]3[C@@H]4C[C@H](C)C[C@H](C)[C@H]4[C@H]4Oc5ccc(cc5)C[C@@]5(O)C=C(C(=O)N5)C(=O)[C@H]2[C@@H]43)[C@H]1C', 'Streptococcus iniae', -0.40),
  ('CN[C@H](CC(C)C)C(=O)N[C@H]1C(=O)N[C@@H](CC(N)=O)C(=O)N[C@H]2C(=O)N[C@H]3C(=O)N[C@H](C(=O)N[C@H](C(=O)O)c4cc(O)cc(O)c4-c4cc3ccc4O)[C@H](O)c3ccc(c(Cl)c3)Oc3cc2cc(c3O[C@@H]2O[C@H](CO)[C@@H](O)[C@H](O)[C@H]2O[C@H]2C[C@](C)(N)[C@H](O)[C@H](C)O2)Oc2ccc(cc2Cl)[C@H]1O [VANCOMYCIN]', 'Streptococcus iniae', 0.10),
  ('CC1=C[C@@]2(C)C(=C(C)[C@H]3[C@@H]4C[C@H](C)C[C@H](C)[C@H]4[C@H]4Oc5ccc(cc5)C[C@@H]5C(=O)NC(=O)[C@H]5C(=O)[C@H]2[C@@H]43)[C@H]1C', 'Streptococcus iniae', 1.10),
  ('CO[C@@H]1/C2=C(\O)[C@H]3[C@H]4[C@H](Oc5ccc(cc5)C[C@]1(O)NC2=O)[C@H]1[C@@H](C[C@H](C)C[C@@H]1C)[C@@H]4C(C)=C1[C@@H](C)C(C)=C[C@@]13C', 'Streptococcus iniae', -0.40);
